B1: library; numbered along this chain (parent)
chain: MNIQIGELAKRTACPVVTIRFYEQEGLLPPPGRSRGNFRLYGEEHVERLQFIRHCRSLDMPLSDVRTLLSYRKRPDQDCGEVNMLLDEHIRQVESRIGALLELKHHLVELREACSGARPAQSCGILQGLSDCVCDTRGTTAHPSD

Variants of: B1
Test: sfGFP reporter fluorescence (15 h) (µM FITC); higher = higher leak
Conditions: library round: Round 0; ligand: none
Recorded endpoint: sfGFP reporter fluorescence

R33V	0.0607
R39T	0.0616
L107W	0.0599
H89L	0.059
